ASSAY_SYSTEM: D(2) dopamine receptor (Homo sapiens, UniProt P14416)
Sequence (P14416 whole entry): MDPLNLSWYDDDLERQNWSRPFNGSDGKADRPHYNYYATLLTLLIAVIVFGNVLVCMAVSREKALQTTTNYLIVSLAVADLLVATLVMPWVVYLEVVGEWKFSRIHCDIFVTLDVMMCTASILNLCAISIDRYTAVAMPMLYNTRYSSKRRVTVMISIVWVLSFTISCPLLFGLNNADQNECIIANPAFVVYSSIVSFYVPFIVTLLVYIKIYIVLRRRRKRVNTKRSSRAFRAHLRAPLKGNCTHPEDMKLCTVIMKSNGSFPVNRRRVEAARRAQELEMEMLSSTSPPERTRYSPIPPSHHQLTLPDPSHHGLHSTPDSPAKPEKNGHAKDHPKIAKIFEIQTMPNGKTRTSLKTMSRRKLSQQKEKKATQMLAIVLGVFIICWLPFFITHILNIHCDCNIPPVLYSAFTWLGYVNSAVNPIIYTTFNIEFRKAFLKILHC
ASSAY_REMARKS: Displacement of radiolabeled spiperone from dopamine D2 receptor
IC50 values by entry
PARAMETER: IC50 (nM)

COc1ccccc1CNCc1ccc(CCNC[C@@H](O)c2ccc(O)c3[nH]c(=O)sc23)cc1
2000
COc1ccccc1CNCc1cccc(CCNC[C@H](O)c2ccc(O)c3[nH]c(=O)sc23)c1
1000
Cc1cccc2c(CCNCc3cccc(CCNC[C@H](O)c4ccc(O)c5[nH]c(=O)sc45)c3)c[nH]c12
398
COc1ccccc1CNCc1ccc(CCNC[C@H](O)c2ccc(O)c3[nH]c(=O)sc23)cc1
2510
O=c1[nH]c2c(O)ccc([C@@H](O)CNCCOc3cccc(CNCCc4ccccc4F)c3)c2s1
398
COCCNCc1cccc(CCNC[C@H](O)c2ccc(O)c3[nH]c(=O)sc23)c1
794
O=c1[nH]c2c(O)ccc([C@@H](O)CNCCc3ccccc3CNCCc3ccccc3F)c2s1
794
O=c1[nH]c2c(O)ccc([C@@H](O)CNCCc3ccc(CNCCc4ccccc4F)cc3)c2s1
2000
COc1ccccc1CCNCc1ccc(CCNC[C@H](O)c2ccc(O)c3[nH]c(=O)sc23)cc1
631
COc1ccccc1CN(C)Cc1cccc(CCNC[C@H](O)c2ccc(O)c3[nH]c(=O)sc23)c1
1000
O=c1[nH]c2c(O)ccc([C@@H](O)CNCCCc3cccc(CNCCc4c(Cl)cccc4Cl)c3)c2s1
79.4
O=c1[nH]c2c(O)ccc([C@@H](O)CNCCc3cccc(CNCCCc4ccccc4)c3)c2s1
316
O=c1[nH]c2c(O)ccc([C@@H](O)CNCCc3cccc(CNCc4ccccc4F)c3)c2s1
631
O=c1[nH]c2c(O)ccc([C@@H](O)CNCCc3cccc(CNCCc4c(Cl)cccc4Cl)c3)c2s1
251
COc1ccccc1CNCCc1cccc(CCNC[C@H](O)c2ccc(O)c3[nH]c(=O)sc23)c1
1000
CC(CNCc1ccc(CCNC[C@H](O)c2ccc(O)c3[nH]c(=O)sc23)cc1)c1ccccc1 (stereo not given in full)
2510
CCOc1ccccc1CNCc1cccc(CCNC[C@H](O)c2ccc(O)c3[nH]c(=O)sc23)c1
1260
O=c1[nH]c2c(O)ccc([C@@H](O)CNCCc3ccc(CNCCc4ccccc4)cc3)c2s1
2000
O=c1[nH]c2c(O)ccc([C@@H](O)CNCCc3cccc(CN4CCCC4)c3)c2s1
3160
O=c1[nH]c2c(O)ccc([C@@H](O)CNCCc3cccc(CNCCc4ccccc4Cl)c3)c2s1
631
O=c1[nH]c2c(O)ccc([C@@H](O)CNCCc3ccc(CNCCc4ccccn4)cc3)c2s1
2510
O=c1[nH]c2c(O)ccc([C@@H](O)CNCCc3cccc(CNCCc4ccccc4F)c3)c2s1
398
O=c1[nH]c2c(O)ccc([C@@H](O)CNCCc3cccc(CNCCc4ccccn4)c3)c2s1
1580
COc1cccc(CNCc2cccc(CCNC[C@H](O)c3ccc(O)c4[nH]c(=O)sc34)c2)c1
794
O=c1[nH]c2c(O)ccc([C@@H](O)CNCCc3ccc(CNCCc4c(Cl)cccc4Cl)cc3)c2s1
1000
CC(Cc1cccc(CNCCc2c(Cl)cccc2Cl)c1)NC[C@H](O)c1ccc(O)c2[nH]c(=O)sc12 (stereo not given in full)
126
O=c1[nH]c2c(O)ccc([C@@H](O)CNCCc3cccc(CNCc4ccccn4)c3)c2s1
5010
COc1ccc(CNCc2cccc(CCNC[C@H](O)c3ccc(O)c4[nH]c(=O)sc34)c2)cc1
794
O=c1[nH]c2c(O)ccc([C@@H](O)CNCCc3cccc(CNCc4ccccc4Cl)c3)c2s1
251
